test system: MRC-5; assay: Resazurin fluorometric cell viability assay, MRC-5; conditions: Homo sapiens, MRC5, 48 h, read-out: IC50 in MRC-5
pIC50: −log10 of the molar value.

{"MOLECULE": "C[C@](C#N)(COc1cc(C#N)ccc1C(F)(F)F)NC(=O)c1ccc(SC(F)(F)F)cc1 [Zolvix, Monepantel, reference compound]", "ASSAY_SYSTEM": "MRC-5", "pIC50": 4.19}
{"MOLECULE": "CC(C#N)(CO)NC(=O)c1ccc(SC(F)(F)F)cc1 (stereo not drawn) [ahpOH]", "ASSAY_SYSTEM": "MRC-5", "pIC50": "< 4.00"}
{"MOLECULE": "CC(=O)OCC(C)(C#N)NC(=O)c1ccc(SC(F)(F)F)cc1 (stereo not drawn) [ahpOH1]", "ASSAY_SYSTEM": "MRC-5", "pIC50": "< 4.00"}
